- measured target: T1, Human CD3eg linker (human)
- T1 construct: Single-chain construct; also called recombinant human CD3
- T1 chain: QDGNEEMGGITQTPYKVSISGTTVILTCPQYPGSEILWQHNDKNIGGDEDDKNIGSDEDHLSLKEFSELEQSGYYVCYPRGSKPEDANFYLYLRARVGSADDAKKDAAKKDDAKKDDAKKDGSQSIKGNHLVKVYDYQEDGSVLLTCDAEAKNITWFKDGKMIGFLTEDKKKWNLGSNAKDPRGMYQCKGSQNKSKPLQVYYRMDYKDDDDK
- measurement notes: SPR; fold vs parent H183/L072
Please respond with reported fold change of affinity for every item in the list.
Entry rule: numbers only, all in fold.

Incoming: Please report the recorded fold change of affinity for H183/L072 VL Q90E (antibody, name in Kabat numbering, V domains shown) VH: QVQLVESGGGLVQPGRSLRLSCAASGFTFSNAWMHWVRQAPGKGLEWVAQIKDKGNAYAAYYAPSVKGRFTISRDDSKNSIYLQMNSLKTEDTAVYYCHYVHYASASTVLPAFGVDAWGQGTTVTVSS VL: DIVMTQSPLSLPVTPGEPASISCQASQELVHMNRNTYLHWYQQKPGQAPRLLIYKVSNRFPGVPDRFSGSGSGTDFTLKISRVEAEDVGVYYCAEGTSVPFTFGQGTKLEIK .
Outgoing: 0.4

Incoming: Again, but for H183/L072 VL L27bS (antibody, name in Kabat numbering, V domains shown) VH: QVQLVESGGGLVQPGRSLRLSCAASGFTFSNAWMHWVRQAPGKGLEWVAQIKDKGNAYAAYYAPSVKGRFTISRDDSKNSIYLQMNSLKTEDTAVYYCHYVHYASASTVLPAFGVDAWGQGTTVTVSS VL: DIVMTQSPLSLPVTPGEPASISCQASQESVHMNRNTYLHWYQQKPGQAPRLLIYKVSNRFPGVPDRFSGSGSGTDFTLKISRVEAEDVGVYYCAQGTSVPFTFGQGTKLEIK
Outgoing: 0

Incoming: Proceed to H183/L072 VL P56S (antibody, name in Kabat numbering, V domains shown) VH: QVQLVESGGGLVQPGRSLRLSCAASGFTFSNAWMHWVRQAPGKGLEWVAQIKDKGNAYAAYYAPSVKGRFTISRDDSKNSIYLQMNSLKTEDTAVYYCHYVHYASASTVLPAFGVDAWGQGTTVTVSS VL: DIVMTQSPLSLPVTPGEPASISCQASQELVHMNRNTYLHWYQQKPGQAPRLLIYKVSNRFSGVPDRFSGSGSGTDFTLKISRVEAEDVGVYYCAQGTSVPFTFGQGTKLEIK
Outgoing: 4.1

Incoming: Try this binder too: H183/L072 VL S26H (antibody, name in Kabat numbering, V domains shown) VH: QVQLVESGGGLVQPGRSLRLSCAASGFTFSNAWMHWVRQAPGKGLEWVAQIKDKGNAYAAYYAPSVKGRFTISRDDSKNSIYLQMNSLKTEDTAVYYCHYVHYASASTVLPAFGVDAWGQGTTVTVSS VL: DIVMTQSPLSLPVTPGEPASISCQAHQELVHMNRNTYLHWYQQKPGQAPRLLIYKVSNRFPGVPDRFSGSGSGTDFTLKISRVEAEDVGVYYCAQGTSVPFTFGQGTKLEIK
Outgoing: 0.4

Incoming: And then H183/L072 VL Q27R (antibody, name in Kabat numbering, V domains shown) VH: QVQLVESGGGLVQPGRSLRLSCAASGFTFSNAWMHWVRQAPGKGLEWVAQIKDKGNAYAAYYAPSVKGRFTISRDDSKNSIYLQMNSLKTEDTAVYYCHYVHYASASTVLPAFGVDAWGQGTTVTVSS VL: DIVMTQSPLSLPVTPGEPASISCQASRELVHMNRNTYLHWYQQKPGQAPRLLIYKVSNRFPGVPDRFSGSGSGTDFTLKISRVEAEDVGVYYCAQGTSVPFTFGQGTKLEIK , what is it?
Outgoing: 1
